Provide the recorded CC50 for the entries that follow.
protocolNotes: in vitro
conditionInfo: human

Exercise: Quickly give me recorded CC50 for COc1ccc(Cn2c(NCCO)nc3c2c(=O)n(C)c(=O)n3C)cc1
Key: > 278 µM

Exercise: Quickly give me recorded CC50 for C#CCn1c(=O)c2c(nc(NCCO)n2Cc2cccc(OC)c2)n(C)c1=O
Key: > 200 µM

Exercise: Quickly give me recorded CC50 for Cn1c(=O)c2c(nc(NCCO)n2Cc2c(F)cccc2F)n(C)c1=O
Key: > 200 µM

Exercise: Quickly give me recorded CC50 for Cn1c(=O)c2c(nc(NCCO)n2Cc2cccc(OC(F)(F)F)c2)n(C)c1=O
Key: 144 µM

Exercise: Quickly give me recorded CC50 for COCCNc1nc2c(c(=O)n(C)c(=O)n2C)n1Cc1cccc(OC)c1
Key: > 134 µM

###

protocolNotes: in vitro
conditionInfo: African green monkey
reportedEndpoint: CC50

Exercise: Quickly give me recorded CC50 for COc1cccc(Cn2c(NCCO)nc3c2c(=O)n(C)c(=O)n3C)c1 [IMB-C5]
Key: 493 µM

###

protocolNotes: in vitro
conditionInfo: human
reportedEndpoint: CC50 (µM)
Quick reminder: number only, in µM, skip the unit.

Exercise: Quickly give me recorded CC50 for Cn1c(=O)c2c(nc(NCCO)n2Cc2cccc(Cl)c2)n(C)c1=O
Key: 200

Exercise: Quickly give me recorded CC50 for C=CCn1c(=O)c2c(nc(NCCO)n2Cc2cccc(OC)c2)n(C)c1=O
Key: 115

Exercise: Quickly give me recorded CC50 for Cn1c(=O)c2c(nc(NCCO)n2Cc2cccc(Cl)c2F)n(C)c1=O
Key: 91

###

protocolNotes: CCK-8 cytotoxicity assay in Huh7 cells
Assay type: cell-based
conditionInfo: human, Huh7 hepatocellular carcinoma cells, CCK-8, 48 hours, read-out: TC50
Provide the recorded CC50 at 48 h for the entries that follow.

Exercise: Quickly give me recorded CC50 at 48 h for COc1cccc(Cn2c(NCCO)nc3c2c(=O)n(C)c(=O)n3C)c1
Key: > 200 µM

Exercise: Quickly give me recorded CC50 at 48 h for CCCCc1ccc(Cn2c(NCCO)nc3c2c(=O)n(C)c(=O)n3C)cc1
Key: > 200 µM

###

protocolNotes: CCK-8 cytotoxicity assay in Huh7.5 cells
Type: cell-based
conditionInfo: human, Huh7.5 hepatocellular carcinoma cells, CCK-8, 48 hours, read-out: TC50
Provide the recorded CC50 at 48 h for the entries that follow.

Exercise: Quickly give me recorded CC50 at 48 h for CCCCc1ccc(Cn2c(NCCO)nc3c2c(=O)n(C)c(=O)n3C)cc1
Key: > 200 µM

Exercise: Quickly give me recorded CC50 at 48 h for COc1cccc(Cn2c(NCCO)nc3c2c(=O)n(C)c(=O)n3C)c1
Key: > 200 µM

###

protocolNotes: in vitro
conditionInfo: human
Provide the recorded CC50 for the entries that follow.

Exercise: Quickly give me recorded CC50 for COc1cccc(Cn2c(NC[C@@H](C)O)nc3c2c(=O)n(C)c(=O)n3C)c1 [IMB-ZHC-6]
Key: > 134 µM

Exercise: Quickly give me recorded CC50 for Cn1c(=O)c2c(nc(NCCO)n2Cc2ccccc2)n(C)c1=O [IMB-ZHB-13x]
Key: > 152 µM

Exercise: Quickly give me recorded CC50 for COc1cccc(Cn2c(NCCO)nc3c2c(=O)n(C)c(=O)n3C)c1 [IMB-C5]
Key: > 139 µM

Exercise: Quickly give me recorded CC50 for COC(=O)CNc1nc2c(c(=O)n(C)c(=O)n2C)n1Cc1cccc(OC)c1 [IMB-ZHC-2]
Key: > 129 µM

Exercise: Quickly give me recorded CC50 for COc1cccc(Cn2c(N[C@@H](C)CO)nc3c2c(=O)n(C)c(=O)n3C)c1 [IMB-ZH-2]
Key: > 134 µM

###

protocolNotes: in vitro
conditionInfo: human
Provide the recorded CC50 for the entries that follow.
Quick reminder: number only, in µM, skip the unit.

Exercise: Quickly give me recorded CC50 for Cn1c(=O)c2c(nc(NCCO)n2Cc2cccc(Br)c2)n(C)c1=O [IMB-81]
Key: 124

Exercise: Quickly give me recorded CC50 for CCn1c(=O)c2c(nc(Br)n2Cc2cccc(OC)c2)n(C)c1=O [IMB-3-30]
Key: 155

Exercise: Quickly give me recorded CC50 for Cn1c(=O)c2c(nc(NCCO)n2Cc2ccc(Cl)cc2)n(C)c1=O [IMB-2-14]
Key: 200

###

protocolNotes: in vitro
conditionInfo: human
reportedEndpoint: CC50

Exercise: Quickly give me recorded CC50 for COc1ccc(Cn2c(NCCO)nc3c2c(=O)n(C)c(=O)n3C)cc1
Key: > 278 µM

Exercise: Quickly give me recorded CC50 for COc1cccc(Cn2c(NCc3ccc(F)c(C(F)(F)F)c3)nc3c2c(=O)n(C)c(=O)n3C)c1
Key: > 102 µM

Exercise: Quickly give me recorded CC50 for Cn1c(=O)c2c(nc(NCCO)n2Cc2ccc(C(C)(C)C)cc2)n(C)c1=O
Key: > 259 µM

Exercise: Quickly give me recorded CC50 for Cn1c(=O)c2c(nc(NCCO)n2Cc2ccc(OC(F)(F)F)cc2)n(C)c1=O
Key: > 242 µM

Exercise: Quickly give me recorded CC50 for COc1cccc(Cn2c(NC[C@H](C)O)nc3c2c(=O)n(C)c(=O)n3C)c1
Key: > 134 µM

Exercise: Quickly give me recorded CC50 for COc1cccc(Cn2c(N[C@@H](CO)C(C)C)nc3c2c(=O)n(C)c(=O)n3C)c1
Key: > 125 µM

Exercise: Quickly give me recorded CC50 for COCCNc1nc2c(c(=O)n(C)c(=O)n2C)n1Cc1cccc(OC)c1
Key: > 134 µM

Exercise: Quickly give me recorded CC50 for CC(C)C(=O)OC[C@H]1O[C@@H](n2ccc(NO)nc2=O)[C@H](O)[C@@H]1O [Molnupiravir, reference compound]
Key: > 200 µM

###

protocolNotes: in vitro
conditionInfo: human
Provide the recorded CC50 for the entries that follow.

Exercise: Quickly give me recorded CC50 for Cn1c(=O)c2c(nc(NCCO)n2Cc2cccc(F)c2F)n(C)c1=O
Key: > 274 µM

Exercise: Quickly give me recorded CC50 for Cn1c(=O)c2c(nc(NCCO)n2Cc2cccc(Cl)c2F)n(C)c1=O
Key: 91 µM

Exercise: Quickly give me recorded CC50 for Cn1c(=O)c2c(nc(NCCO)n2Cc2cccc(F)c2)n(C)c1=O
Key: > 288 µM

Exercise: Quickly give me recorded CC50 for COc1cccc(Cn2c(NCC(N)=O)nc3c2c(=O)n(C)c(=O)n3C)c1
Key: > 134 µM

###

protocolNotes: in vitro
conditionInfo: human
reportedEndpoint: CC50

Exercise: Quickly give me recorded CC50 for Cn1c(=O)c2c(nc(NCCO)n2Cc2ccc(OC(F)(F)F)cc2)n(C)c1=O [IMB-2-3]
Key: > 242 µM

Exercise: Quickly give me recorded CC50 for COc1cccc(Cn2c(-n3ccnc3)nc3c2c(=O)n(C)c(=O)n3C)c1 [IMB-2-26]
Key: > 200 µM

Exercise: Quickly give me recorded CC50 for Cn1c(=O)c2c(nc(NCCO)n2Cc2ccccc2Br)n(C)c1=O [IMB-2-6]
Key: > 200 µM

Exercise: Quickly give me recorded CC50 for CCn1c(=O)c2c(nc(NCCO)n2Cc2cccc(OC)c2)n(C)c1=O [IMB-3-46]
Key: > 200 µM

Exercise: Quickly give me recorded CC50 for CCCn1c(=O)c2c(nc(NCCO)n2Cc2cccc(OC)c2)n(C)c1=O [IMB-3-47]
Key: > 200 µM

Exercise: Quickly give me recorded CC50 for C#CCCn1c(=O)c2c(nc(NCCO)n2Cc2cccc(OC)c2)n(C)c1=O [IMB-3-45]
Key: > 200 µM

Exercise: Quickly give me recorded CC50 for CCOC(=O)c1cccc(Cn2c(NCCO)nc3c2c(=O)n(C)c(=O)n3C)c1 [IMB-4-6]
Key: 200 µM

Exercise: Quickly give me recorded CC50 for COc1cccc(Cn2c(N3CCN(c4ccc(F)cc4)CC3)nc3c2c(=O)n(C)c(=O)n3C)c1 [IMB-2-31]
Key: > 200 µM

Exercise: Quickly give me recorded CC50 for COc1cccc(Cn2c(NC[C@@H](C)O)nc3c2c(=O)n(C)c(=O)n3C)c1 [IMB-ZHC-6]
Key: > 134 µM

Exercise: Quickly give me recorded CC50 for COc1cccc(Cn2c(NCCO)nc3c2c(=O)n(C)c(=O)n3Cc2ccccc2)c1 [IMB-3-81]
Key: > 200 µM

Exercise: Quickly give me recorded CC50 for COc1cccc(Cn2c(NCc3ccc(F)c(C(F)(F)F)c3)nc3c2c(=O)n(C)c(=O)n3C)c1 [IMB-ZH-11]
Key: > 102 µM

Exercise: Quickly give me recorded CC50 for COc1cccc(Cn2c(NCCO)nc3c2c(=O)n(Cc2ccc(F)cc2)c(=O)n3C)c1 [IMB-3-13]
Key: 46.2 µM

Exercise: Quickly give me recorded CC50 for COc1cccc(Cn2c(NCC(N)=O)nc3c2c(=O)n(C)c(=O)n3C)c1 [IMB-ZHC-15]
Key: > 134 µM

Exercise: Quickly give me recorded CC50 for Cn1c(=O)c2c(nc(NCCO)n2Cc2ccc(F)cc2F)n(C)c1=O [IMB-83]
Key: > 200 µM

Exercise: Quickly give me recorded CC50 for COc1cccc(Cn2c(NCCO)nc3c2c(=O)n(CCNC(=O)OC(C)(C)C)c(=O)n3C)c1 [IMB-3-57]
Key: > 200 µM

Exercise: Quickly give me recorded CC50 for Cn1c(=O)c2c(nc(NCCO)n2CC2CCOCC2)n(C)c1=O [IMB-3-19]
Key: > 200 µM

Exercise: Quickly give me recorded CC50 for COc1cccc(Cn2c(NCCO)nc3c2c(=O)n(Cc2ccncc2)c(=O)n3C)c1 [IMB-3-16]
Key: 115 µM

Exercise: Quickly give me recorded CC50 for COC(=O)CNc1nc2c(c(=O)n(C)c(=O)n2C)n1Cc1cccc(OC)c1 [IMB-ZHC-2]
Key: > 129 µM

Exercise: Quickly give me recorded CC50 for COc1cccc(Cn2c(N[C@@H](CO)C(C)C)nc3c2c(=O)n(C)c(=O)n3C)c1 [IMB-ZH-12]
Key: > 125 µM

Exercise: Quickly give me recorded CC50 for COc1cccc(Cn2c(N[C@@H](C)CO)nc3c2c(=O)n(C)c(=O)n3C)c1 [IMB-ZH-2]
Key: > 134 µM

Exercise: Quickly give me recorded CC50 for Cn1c(=O)c2c(nc(NCCO)n2Cc2cccc(F)c2)n(C)c1=O [IMB-80]
Key: > 288 µM

Exercise: Quickly give me recorded CC50 for Cn1c(=O)c2c(nc(NCCO)n2Cc2ccc(OC(F)F)cc2)n(C)c1=O [IMB-2-8]
Key: > 200 µM

Exercise: Quickly give me recorded CC50 for Cc1ccccc1Cn1c(NCCO)nc2c1c(=O)n(C)c(=O)n2C [IMB-68]
Key: 200 µM

Exercise: Quickly give me recorded CC50 for COc1cccc(Cn2c(NCCO)nc3c2c(=O)n(C)c(=O)n3C)c1 [IMB-C5]
Key: > 139 µM

Exercise: Quickly give me recorded CC50 for COc1cccc(CCn2c(NCCO)nc3c2c(=O)n(C)c(=O)n3C)c1 [IMB-4-13]
Key: > 200 µM

Exercise: Quickly give me recorded CC50 for Cn1c(=O)c2c(nc(NCCO)n2Cc2ccc(F)cc2)n(C)c1=O [IMB-2-2]
Key: > 200 µM

Exercise: Quickly give me recorded CC50 for Cn1c(=O)c2c(nc(NCCO)n2Cc2ccsc2)n(C)c1=O [IMB-4-12]
Key: > 200 µM

Exercise: Quickly give me recorded CC50 for Cn1c(=O)c2c(nc(NCCO)n2Cc2cccc(F)c2F)n(C)c1=O [IMB-82]
Key: > 274 µM

Exercise: Quickly give me recorded CC50 for COc1ccc(Cn2c(=O)c3c(nc(NCCO)n3Cc3cccc(OC)c3)n(C)c2=O)cc1 [IMB-3-15]
Key: > 200 µM

Exercise: Quickly give me recorded CC50 for COC(=O)c1ccc2c(ccn2-c2nc3c(c(=O)n(C)c(=O)n3C)n2Cc2cccc(OC)c2)c1 [IMB-2-32]
Key: 51.7 µM

Exercise: Quickly give me recorded CC50 for CC(C)C(=O)OC[C@H]1O[C@@H](n2ccc(NO)nc2=O)[C@H](O)[C@@H]1O [Molnupiravir, reference compound]
Key: > 200 µM

Exercise: Quickly give me recorded CC50 for Cn1c(=O)c2c(nc(NCCO)n2Cc2cccc([N+](=O)[O-])c2)n(C)c1=O [IMB-79]
Key: > 200 µM

Exercise: Quickly give me recorded CC50 for COc1cccc(Cn2c(NCCO)nc3c2c(=O)n(CCCNC(=O)OC(C)(C)C)c(=O)n3C)c1 [IMB-3-58]
Key: > 200 µM
